For each entry below, report its pKd value.
Biological target: T1, cynomolgus PRLR ECD (cynomolgus, UniProt A0A2K5WXK1 25-234)
T1 construct: extracellular domain; also called Cyno PRLR
T1 sequence: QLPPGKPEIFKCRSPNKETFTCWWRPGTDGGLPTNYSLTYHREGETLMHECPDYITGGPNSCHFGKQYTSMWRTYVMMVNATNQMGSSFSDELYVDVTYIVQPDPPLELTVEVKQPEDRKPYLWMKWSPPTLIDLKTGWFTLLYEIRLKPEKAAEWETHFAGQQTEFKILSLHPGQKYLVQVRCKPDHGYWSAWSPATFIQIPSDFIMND
Assay: Biacore SPR, antibody captured on Protein A/G, kinetic titration of PRLR ECD, 1:1 Langmuir
Numbers only, as −log10 of the molar value.

List pKd for every entry below, keeping the order given.
1. he.06.275-1 (antibody, V domains shown, Human Engineered) VH: DVQLQESGPGLVKPSQTLSLTCTVTGYSITSDYAWNWIRQFPGKKLEWMGYISYSGSTSYNPSLKSRITISRDTSKNQFSLQLNSVTAADTATYFCARDYGYVFDYWGQGTTLTVSS VL: DVQITQSPSSLSASPGDRITLTCRASKNIYKYLAWYQEKPGKTNNLLIYSGSTLHSGIPSRFSGSGSGTDFTLTISSLQPEDFAMYYCQQHNDYPYTFGQGTKLEIK
2. he.06.275-2 (antibody, V domains shown, Human Engineered) VH: QVQLQESGPGLVKPSQTLSLTCTVSGYSITSDYAWNWIRQFPGKGLEWMGYISYSGSTSYNPSLKSRITISRDTSKNQFSLQLNSVTAADTAVYFCARDYGYVFDYWGQGTTLTVSS VL: DVQITQSPSSLSASPGDRITLTCRASKNIYKYLAWYQEKPGKTNNLLIYSGSTLHSGIPSRFSGSGSGTDFTLTISSLQPEDFAMYYCQQHNDYPYTFGQGTKLEIK
3. he.06.275-3 (antibody, V domains shown, Human Engineered) VH: DVQLQESGPGLVKPSQTLSLTCTVTGYSITSDYAWNWIRQFPGKKLEWMGYISYSGSTSYNPSLKSRITISRDTSKNQFSLQLNSVTAADTATYFCARDYGYVFDYWGQGTTLTVSS VL: DVQITQSPSSLSASPGDRITLTCRASKNIYKYLAWYQEKPGKANKLLIYSGSTLHSGIPSRFSGSGSGTDFTLTISSLQPEDFAMYYCQQHNDYPYTFGQGTKLEIK
4. he.06.642-2 (antibody, V domains shown, Human Engineered) VH: EVQLVESGGGLVQPGGSLRLSCAVSGFTFSSYGMSWVRQAPGKGLEWVATVSSGGTYTYYPDSVKGRFTISRDNSKNTLYLQMNSLRAEDTAVYYCARHRGNYYATYYYAMDYWGQGTLVTVSS VL: DIVLTQSPDSLAVSLGERATINCKASKSVSTSGYTYMHWYQQKPGQPPKLLIYLASNRESGVPDRFSGSGSGTDFTLTISPVQAEDVATYYCQHSGELPPSFGQGTKLEIK
5. he.06.642-1 (antibody, V domains shown, Human Engineered) VH: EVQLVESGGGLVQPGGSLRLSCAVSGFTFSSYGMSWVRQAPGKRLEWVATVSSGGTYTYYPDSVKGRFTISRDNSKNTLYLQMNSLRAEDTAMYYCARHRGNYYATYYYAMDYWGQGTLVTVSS VL: DIVLTQSPDSLAVSLGERATINCKASKSVSTSGYTYMHWYQQKPGQPPKLLIYLASNRESGVPDRFSGSGSGTDFTLTISPVQAEDVATYYCQHSGELPPSFGQGTKLEIK

Output:
1. 8.80
2. 8.72
3. 8.89
4. 7.33
5. 7.51

Input: Request the reported pKd associated with he.06.275-4 (antibody, V domains shown, Human Engineered) VH: QVQLQESGPGLVKPSQTLSLTCTVSGYSITSDYAWNWIRQFPGKGLEWMGYISYSGSTSYNPSLKSRITISRDTSKNQFSLQLNSVTAADTAVYFCARDYGYVFDYWGQGTTLTVSS VL: DVQITQSPSSLSASPGDRITLTCRASKNIYKYLAWYQEKPGKANKLLIYSGSTLHSGIPSRFSGSGSGTDFTLTISSLQPEDFAMYYCQQHNDYPYTFGQGTKLEIK
Output: 8.77
